Would you kindly list inhibition for each of these compounds?
# ASSAYED_TARGET: Histamine H3 receptor (Cavia porcellus) (UniProt Q9JI35)
# Sequence (Q9JI35 whole entry): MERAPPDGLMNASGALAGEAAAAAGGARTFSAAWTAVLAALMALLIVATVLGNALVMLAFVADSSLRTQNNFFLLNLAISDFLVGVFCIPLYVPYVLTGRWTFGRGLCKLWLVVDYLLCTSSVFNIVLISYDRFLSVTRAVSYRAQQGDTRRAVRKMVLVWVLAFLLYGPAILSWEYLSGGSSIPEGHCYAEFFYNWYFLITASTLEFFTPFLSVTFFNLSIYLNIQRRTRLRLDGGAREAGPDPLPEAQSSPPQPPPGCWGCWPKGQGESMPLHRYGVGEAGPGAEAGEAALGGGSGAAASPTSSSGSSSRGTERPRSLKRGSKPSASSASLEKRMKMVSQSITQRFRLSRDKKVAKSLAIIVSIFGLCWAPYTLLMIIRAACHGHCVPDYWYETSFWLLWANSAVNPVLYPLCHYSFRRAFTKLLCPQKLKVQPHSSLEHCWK
# TEST_DESCRIPTION: Evaluated in vivo for its H3 receptor antagonist activity in the CNS hypertension model at 3 mg/kg dose
# Assay type: functional, organism-based
# Set-up: dose 3 mg/kg
# output: bare number, implied unit %

Exercise: Return inhibition (reported value) for this compound: O=S(=O)(NCCCCc1c[nH]cn1)c1cccc(Cl)c1
Solution: 8

Exercise: Return inhibition (reported value) for this compound: O=S(=O)(Cc1ccccc1)NCCCCc1c[nH]cn1
Solution: 17

Exercise: Return inhibition (reported value) for this compound: Cc1ccc(S(=O)(=O)NCCCCc2c[nH]cn2)cc1
Solution: 16

Exercise: Return inhibition (reported value) for this compound: CN(CCCCc1c[nH]cn1)S(=O)(=O)c1ccc(Cl)cc1
Solution: 43

Exercise: Return inhibition (reported value) for this compound: CC(C)(C)c1ccc(S(=O)(=O)NCCCCCc2c[nH]cn2)cc1
Solution: 40
